Readings of pIC50 for the listed compounds
System: WNV replicon
Experiment: WNV replicon luciferase assay in BHK 26.5 cells (HTS, re-test, IC50)
Assay type: cell-based, West Nile virus
Conditions: West Nile virus, 24 h
pIC50: −log10 of the molar value.
Measure name: pIC50

>>> reading("COc1ccc(CC(=O)Nc2ccc(C(=N)NO)cc2)cc1")
5.30
>>> reading("COc1ccc(-n2nc3c(c2NC(=O)c2ccc(S(=O)(=O)N4CCCCC4)cc2)CSC3)cc1 [Compound 18-D2]")
5.12
>>> reading("Cc1ccc(-c2csc(Nc3ccc(S(=O)(=O)Nc4cc(C)on4)cc3)n2)cc1")
5.30
>>> reading("Cc1cccc(-n2nc3c(c2NC(=O)c2ccc(S(=O)(=O)N4CCCCC4)cc2)CSC3)c1")
5.12
>>> reading("CCc1cccc(NC(=O)C(Cc2ccccc2)NS(=O)(=O)c2cccs2)c1 (centres unmarked)")
5.00
>>> reading("CCN(CCNC(=O)c1cnn2c(O)c(Cc3ccccc3F)c(C)nc12)c1ccccc1")
5.00
>>> reading("Cc1ccc(S(=O)(=O)N2Cc3ccccc3CC2C(=O)Nc2ccc(Cl)cc2)cc1 (centres unmarked)")
5.12
>>> reading("Cc1nc2c(C(=O)NCCC3=CCCCC3)cnn2c(O)c1Cc1ccccc1Cl")
5.12

* * *

System: WNV replicon
Assay: WNV replicon luciferase assay in BHK 26.5 cells (HTS, re-test, IC50)
Type: cell-based, West Nile virus
Conditions: West Nile virus, 24 h
hey, just use true (1) if measured IC50 is less than 8 µM, otherwise false (0)

>>> category("NC(=O)CCS(=O)(=O)c1ccc(Cl)cc1")
"true (1)"
>>> category("CCC(C)NC(=O)c1cnn2c(O)c(Cc3ccccc3Cl)c(C)nc12 (centres unmarked)")
"true (1)"
>>> category("COc1cc(OC)cc(C(=O)Nc2c3c(nn2-c2cccc(Cl)c2)CSC3)c1")
"true (1)"
>>> category("COc1ccc(-n2nc3c(c2NC(=O)c2cccs2)CSC3)cc1")
"true (1)"
>>> category("Cc1ccc(CCNC(=O)c2cnn3c(O)c(Cc4ccccc4F)c(C)nc23)cc1")
"false (0)"

* * *

Experiment: toxicity (MTT, CC50) in BHK cells parallel to WNV infection assay
Format: cell-based
Conditions: hamster; highest concentration used 40 μM
Measure name: CC50

>>> reading("Cc1ccc(-c2csc(Nc3ccc(S(=O)(=O)Nc4cc(C)on4)cc3)n2)cc1")
"> 40 µM"

Origin of measurements: patent US20100075993A1
